Biological target: purified leucine aminopeptidase (LAP) (Sus scrofa, UniProt P15145)
Construct: purchased Sigma, St. Louis, Mo; L5006
Sequence (P15145 1-963): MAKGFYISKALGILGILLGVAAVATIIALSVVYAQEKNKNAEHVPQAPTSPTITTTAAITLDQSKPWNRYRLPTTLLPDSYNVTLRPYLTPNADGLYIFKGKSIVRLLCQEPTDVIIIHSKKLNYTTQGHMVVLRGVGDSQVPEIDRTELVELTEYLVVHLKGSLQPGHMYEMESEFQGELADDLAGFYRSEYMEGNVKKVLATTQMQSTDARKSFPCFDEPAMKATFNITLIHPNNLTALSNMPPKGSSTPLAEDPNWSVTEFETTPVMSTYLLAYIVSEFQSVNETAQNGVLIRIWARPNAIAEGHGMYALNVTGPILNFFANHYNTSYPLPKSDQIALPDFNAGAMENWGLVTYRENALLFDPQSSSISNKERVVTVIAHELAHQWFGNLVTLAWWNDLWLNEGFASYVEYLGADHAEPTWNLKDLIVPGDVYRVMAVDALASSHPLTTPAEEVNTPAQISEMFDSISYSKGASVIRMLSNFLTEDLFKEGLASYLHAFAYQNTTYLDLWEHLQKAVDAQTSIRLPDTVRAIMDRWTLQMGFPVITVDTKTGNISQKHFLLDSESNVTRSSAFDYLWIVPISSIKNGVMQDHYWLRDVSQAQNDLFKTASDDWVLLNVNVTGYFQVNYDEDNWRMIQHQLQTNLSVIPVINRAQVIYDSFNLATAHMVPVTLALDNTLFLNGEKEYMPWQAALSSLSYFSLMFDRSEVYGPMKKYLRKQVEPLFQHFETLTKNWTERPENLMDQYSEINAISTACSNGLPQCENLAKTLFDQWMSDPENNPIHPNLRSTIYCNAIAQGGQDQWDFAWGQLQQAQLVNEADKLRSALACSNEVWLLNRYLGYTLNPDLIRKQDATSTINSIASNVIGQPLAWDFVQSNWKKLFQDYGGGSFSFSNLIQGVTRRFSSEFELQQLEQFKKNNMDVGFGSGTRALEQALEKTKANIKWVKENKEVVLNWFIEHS
Assay: Purified Leucine Aminopeptidase Activity (Purified Enzyme Method)
Assay type: biochemical
Conditions: purified leucine aminopeptidase, L-Leucine-p-nitroaniline, pH 7.2, 25° C.; read-out: IC50 Purified Enzyme Methods LAP
Square brackets hold non-standard residues; d marks the D form. Peptide text beside a SMILES is read from it. * marks the point of attachment. Sta = CC(C)C[C@H](N)[C@@H](O)CC(=O)O; Isovaleryl = CC(C)CC(=O)*
Would you mind telling me the reported IC50 of each entry?

Summary: CC(C)CC(=O)N[C@H](C(=O)N[C@H](C(=O)N[C@@H](CC(C)C)[C@@H](O)CC(=O)N[C@@H](C)C(=O)N[C@@H](CC(C)C)[C@@H](O)CC(=O)O)C(C)C)C(C)C [Pepstatin A] (Isovaleryl-VV[Sta]A[Sta]-OH) , purified leucine aminopeptidase (LAP) (Sus scrofa, UniProt P15145), IC50 = > 500 µM

Summary: CC(C)C[C@H](NC(=O)[C@@H](NC(=O)N[C@@H](Cc1ccccc1)C(=O)O)[C@@H]1CCN=C(N)N1)C(=O)N[C@H](C=O)Cc1ccccc1 [Chymostatin] , purified leucine aminopeptidase (LAP) (Sus scrofa, UniProt P15145), IC50 = > 500 µM

Summary: CC(=O)N[C@@H](CC(C)C)C(=O)N[C@@H](CC(C)C)C(=O)N[C@H](C=O)CCCNC(=N)N [Leupeptin] , purified leucine aminopeptidase (LAP) (Sus scrofa, UniProt P15145), IC50 = > 500 µM

FYI, the data here is from patent US6703536B2.
